# System: Aspergillus fumigatus
# METHOD DESCRIPTION: MIC in serial dilution test, Aspergillus fumigatus
# Assay type: cell-based
# RECORDED CONDITIONS: 20160 min, pH 6
READOUT TYPE: MIC values, Asp. fu.

Check out these entries, answers already filled in.
INSERT INTO assay_data (compound, target_system, result) VALUES
  ('Cl.Cl.Clc1ccc(SCCCNC(Cn2ccnc2)c2ccc(Cl)cc2Cl)cc1 (stereo not drawn)', 'Aspergillus fumigatus', '0,78 μg/ml'),
  ('Clc1ccc(C(Cn2ccnc2)NCCCSc2c(Cl)cccc2Cl)c(Cl)c1 (stereo not drawn)', 'Aspergillus fumigatus', '12,5 μg/ml'),
  ('Clc1ccc(SCCCNC(Cn2ccnc2)c2cccs2)cc1 (stereo not drawn)', 'Aspergillus fumigatus', '12,5 μg/ml'),
  ('Clc1ccc(C(Cn2ccnc2)NCCCSc2ccc3ccccc3c2)c(Cl)c1 (stereo not drawn)', 'Aspergillus fumigatus', '0,78 μg/ml'),
  ('Clc1ccc(SCCNC(Cn2ccnc2)c2ccc(-c3ccccc3)cc2)cc1 (stereo not drawn)', 'Aspergillus fumigatus', '3,12 μg/ml'),
  ('Clc1ccc(SCCCNC(Cn2ccnc2)c2ccc(Cl)cc2Cl)cc1 (stereo not drawn)', 'Aspergillus fumigatus', '3,12 μg/ml'),
  ('CN(CCCSCc1ccc(Cl)cc1)C(Cn1ccnc1)c1ccc(Cl)cc1Cl (stereo not drawn)', 'Aspergillus fumigatus', '25,0 μg/ml'),
  ('Clc1ccc(C(Cn2ccnc2)NCCCSc2ccc(Br)cc2)c(Cl)c1 (stereo not drawn) [compound 24]', 'Aspergillus fumigatus', '0,39 μg/ml');

Prompt line: Given the entry COc1ccc(SCCNC(Cn2ccnc2)c2ccc(Cl)cc2Cl)cc1 (stereo not drawn) , report its measured MIC values, Asp. fu..
Response line: 12,5 μg/ml

Prompt line: Item: Clc1ccc(SCCNC(Cn2ccnc2)c2ccc(Cl)cc2Cl)cc1 (stereo not drawn)
Response line: 6,25 μg/ml

Prompt line: Then what about the compound Clc1ccc(SCCCCCNC(Cn2ccnc2)c2ccc(Cl)cc2Cl)cc1 (stereo not drawn) ?
Response line: 6,25 μg/ml

Prompt line: Subsequent entry: Clc1ccc(C(Cn2ccnc2)NCCSc2ccc(Br)cc2)c(Cl)c1 (stereo not drawn)
Response line: 6,25 μg/ml

* * *

# Test system: Mucor mucedo minus
READOUT TYPE: MIC (µg/mL)

INSERT INTO results (compound, recorded_number) VALUES
  ('Fc1ccc(SCCCNC(Cn2ccnc2)c2ccc(Cl)cc2Cl)cc1 (stereo not shown)', 12.5),
  ('Clc1ccc(C(Cn2ccnc2)NCCSc2ccc3ccccc3c2)c(Cl)c1 (stereo not shown)', 12.5);

I. Clc1ccc(SCCCNC(Cn2ccnc2)c2cccs2)cc1 (stereo not shown)
II. Clc1ccc(SCCNC(Cn2ccnc2)c2ccc(-c3ccccc3)cc2)cc1 (stereo not shown)
Prompt line: From the recorded data, which exceeds the other in MIC: I or II ? Please indicate the selected item by its label.
Response line: I

* * *

Each entry below carries its reported MIC values, Asp. fu..
# System: Aspergillus fumigatus
# METHOD DESCRIPTION: MIC in serial dilution test, Aspergillus fumigatus
# Format: cell-based
# RECORDED CONDITIONS: 20160 min, pH 6

Below are worked cases with known answers.
INSERT INTO assay_data (compound, target_system, result) VALUES
  ('Cc1ccc(SCCCNC(Cn2ccnc2)c2ccc(Cl)cc2Cl)cc1 (stereo not drawn)', 'Aspergillus fumigatus', '0,78 μg/ml'),
  ('Clc1ccc(C(Cn2ccnc2)NCCCSc2ccc(Br)cc2)c(Cl)c1 (stereo not drawn) [compound 23]', 'Aspergillus fumigatus', '1,56 μg/ml'),
  ('Clc1ccc(SCCCNC(Cn2ccnc2)c2ccc(Br)cc2)cc1 (stereo not drawn)', 'Aspergillus fumigatus', '6,25 μg/ml');

Prompt line: State the recorded MIC values, Asp. fu. for this entry: Clc1ccc(SCCCNC(Cn2ccnc2)c2cccc3ccccc23)cc1 (stereo not drawn)
Response line: 3,12 μg/ml

Prompt line: Same question, Clc1ccc(C(Cn2ccnc2)NCCCSc2ccccc2)c(Cl)c1 (stereo not drawn) this time
Response line: 3,12 μg/ml

Prompt line: For Fc1ccc(SCCCNC(Cn2ccnc2)c2ccc(Cl)cc2Cl)cc1 (stereo not drawn) then?
Response line: 12,5 μg/ml
